The values you see were collected from ChEMBL document CHEMBL2029241.

As shown below, each of these molecules has a reported IC50 value.
- System: B16-F10
- Protocol Details: Cytotoxicity against mouse B16F10 cells after 48 hrs by MTT assay
- Type: functional, cell-based
- Measurement Setup: Mus musculus, B16-F10, 48 h; read-out: IC50

Molecule: COc1cccc(/C=C2\CC[C@@H]3[C@H]4CCCN5CCC[C@@H](CN3C2=O)[C@@H]45)c1
IC50: 8.7 µg/mL

Molecule: O=C1/C(=C/c2ccc(Cl)c(Cl)c2)CC[C@@H]2[C@H]3CCCN4CCC[C@@H](CN12)[C@@H]34
IC50: 6.5 µg/mL

Molecule: O=C1/C(=C/c2ccc(F)cc2)CC[C@@H]2[C@H]3CCCN4CCC[C@@H](CN12)[C@@H]34
IC50: 2.5 µg/mL

Molecule: O=C1/C(=C/c2cccc(F)c2)CC[C@@H]2[C@H]3CCCN4CCC[C@@H](CN12)[C@@H]34
IC50: 2.7 µg/mL

Molecule: O=C1/C(=C/c2ccc(Cl)cc2)CC[C@@H]2[C@H]3CCCN4CCC[C@@H](CN12)[C@@H]34
IC50: 3.9 µg/mL

Molecule: O=C1CCC[C@@H]2[C@H]3CCCN4CCC[C@@H](CN12)[C@@H]34
IC50: 17 µg/mL

Molecule: O=C1/C(=C/c2ccc([N+](=O)[O-])cc2)CC[C@@H]2[C@H]3CCCN4CCC[C@@H](CN12)[C@@H]34
IC50: 2.8 µg/mL

Molecule: NC(=O)CCCC1NCC2CCCN3CCCC1C23 (stereo not drawn)
IC50: 12.9 µg/mL

====

- Test system: A549
- Protocol Details: Cytotoxicity against human A549 cells after 48 hrs by MTT assay
- Assay type: functional, cell-based
- Measurement Setup: Homo sapiens, A549, 48 h; read-out: IC50
// boundary case: IC50 equal to 4 µg/mL maps to no; strictly smaller maps to yes

Chem Smiles: O=C1/C(=C/c2ccccc2)CC[C@@H]2[C@H]3CCCN4CCC[C@@H](CN12)[C@@H]34
Subject Of Test: A549
Category: no
--
Chem Smiles: COc1cccc(/C=C2\CC[C@@H]3[C@H]4CCCN5CCC[C@@H](CN3C2=O)[C@@H]45)c1
Subject Of Test: A549
Category: yes
--
Chem Smiles: COc1ccc(/C=C2\CC[C@@H]3[C@H]4CCCN5CCC[C@@H](CN3C2=O)[C@@H]45)cc1
Subject Of Test: A549
Category: yes
--
Chem Smiles: O=C1/C(=C/c2ccc(Cl)c(Cl)c2)CC[C@@H]2[C@H]3CCCN4CCC[C@@H](CN12)[C@@H]34
Subject Of Test: A549
Category: no
--
Chem Smiles: O=C1/C(=C/c2ccc([N+](=O)[O-])cc2)CC[C@@H]2[C@H]3CCCN4CCC[C@@H](CN12)[C@@H]34
Subject Of Test: A549
Category: no
--
Chem Smiles: O=C1/C(=C/c2ccncc2)CC[C@@H]2[C@H]3CCCN4CCC[C@@H](CN12)[C@@H]34
Subject Of Test: A549
Category: no
--
Chem Smiles: COc1cc(/C=C2\CC[C@@H]3[C@H]4CCCN5CCC[C@@H](CN3C2=O)[C@@H]45)cc(OC)c1OC
Subject Of Test: A549
Category: yes

====

Measured IC50, listed per entry for reference.
- Tested on: B16-F10
- Protocol Details: Cytotoxicity against mouse B16F10 cells after 48 hrs by MTT assay
- Type: functional, cell-based
- Measurement Setup: Mus musculus, B16-F10, 48 h; read-out: IC50

Molecule: O=C(c1cccs1)C1CC[C@@H]2[C@H]3CCCN4CCC[C@@H](CN2C1=O)[C@@H]34 (stereo not given in full)
IC50: 4.5 µg/mL
//
Molecule: COc1cc2c(c(OC)c1OC)-c1ccc(OC)c(=O)cc1[C@@H](NC(C)=O)CC2
IC50: 0.8 µg/mL
//
Molecule: O=C(c1ccco1)C1CC[C@@H]2[C@H]3CCCN4CCC[C@@H](CN2C1=O)[C@@H]34 (stereo not given in full)
IC50: 12.9 µg/mL
//
Molecule: COc1ccc(/C=C2\CC[C@@H]3[C@H]4CCCN5CCC[C@@H](CN3C2=O)[C@@H]45)cc1
IC50: 0.8 µg/mL
//
Molecule: O=C1/C(=C/c2ccc(Br)cc2)CC[C@@H]2[C@H]3CCCN4CCC[C@@H](CN12)[C@@H]34
IC50: 2.6 µg/mL
//
Molecule: O=C(c1ccccc1)C1CC[C@@H]2[C@H]3CCCN4CCC[C@@H](CN2C1=O)[C@@H]34 (stereo not given in full)
IC50: 10.6 µg/mL
//
Molecule: COc1cc(/C=C2\CC[C@@H]3[C@H]4CCCN5CCC[C@@H](CN3C2=O)[C@@H]45)cc(OC)c1OC
IC50: 9.8 µg/mL
//
Molecule: O=C1/C(=C/c2cccc([N+](=O)[O-])c2)CC[C@@H]2[C@H]3CCCN4CCC[C@@H](CN12)[C@@H]34
IC50: 8.5 µg/mL
//
Molecule: O=C1/C(=C/c2ccncc2)CC[C@@H]2[C@H]3CCCN4CCC[C@@H](CN12)[C@@H]34
IC50: 6.2 µg/mL
//
Molecule: O=C1/C(=C/c2ccccc2)CC[C@@H]2[C@H]3CCCN4CCC[C@@H](CN12)[C@@H]34
IC50: 5.7 µg/mL

====

Item-by-item account of log10 of IC50
- Protocol Details: Cytotoxicity against human TW03 cells after 48 hrs by MTT assay
- Format: functional, cell-based
- Measurement Setup: Homo sapiens, TW03, 48 h; read-out: IC50
Reported Endpoint: log10 of IC50 (log10 of the value in mg/L)

Compound: O=C1/C(=C/c2ccncc2)CC[C@@H]2[C@H]3CCCN4CCC[C@@H](CN12)[C@@H]34
Reported Result: 0.64
--
Compound: O=C1/C(=C/c2cccc(F)c2)CC[C@@H]2[C@H]3CCCN4CCC[C@@H](CN12)[C@@H]34
Reported Result: 0.34
--
Compound: O=C1/C(=C/c2ccc(Cl)cc2)CC[C@@H]2[C@H]3CCCN4CCC[C@@H](CN12)[C@@H]34
Reported Result: 0.45
--
Compound: O=C1/C(=C/c2ccc([N+](=O)[O-])cc2)CC[C@@H]2[C@H]3CCCN4CCC[C@@H](CN12)[C@@H]34
Reported Result: 0.57
--
Compound: O=C1CCC[C@@H]2[C@H]3CCCN4CCC[C@@H](CN12)[C@@H]34
Reported Result: 1.21
--
Compound: O=C1/C(=C/c2ccc(Br)cc2)CC[C@@H]2[C@H]3CCCN4CCC[C@@H](CN12)[C@@H]34
Reported Result: 0.51
--
Compound: COc1cccc(/C=C2\CC[C@@H]3[C@H]4CCCN5CCC[C@@H](CN3C2=O)[C@@H]45)c1
Reported Result: 0.81
--
Compound: COc1cc(/C=C2\CC[C@@H]3[C@H]4CCCN5CCC[C@@H](CN3C2=O)[C@@H]45)cc(OC)c1OC
Reported Result: 0.74
--
Compound: O=C1/C(=C/c2ccccc2)CC[C@@H]2[C@H]3CCCN4CCC[C@@H](CN12)[C@@H]34
Reported Result: 0.38
--
Compound: O=C1/C(=C/c2ccc(F)cc2)CC[C@@H]2[C@H]3CCCN4CCC[C@@H](CN12)[C@@H]34
Reported Result: 0.28
--
Compound: O=C(c1ccco1)C1CC[C@@H]2[C@H]3CCCN4CCC[C@@H](CN2C1=O)[C@@H]34 (stereo not given in full)
Reported Result: 0.69
--
Compound: O=C(c1cccs1)C1CC[C@@H]2[C@H]3CCCN4CCC[C@@H](CN2C1=O)[C@@H]34 (stereo not given in full)
Reported Result: 0.91
--
Compound: NC(=O)CCCC1NCC2CCCN3CCCC1C23 (stereo not given)
Reported Result: 1.34
--
Compound: O=C1/C(=C/c2cccc([N+](=O)[O-])c2)CC[C@@H]2[C@H]3CCCN4CCC[C@@H](CN12)[C@@H]34
Reported Result: 0.38
--
Compound: COc1cc2c(c(OC)c1OC)-c1ccc(OC)c(=O)cc1[C@@H](NC(C)=O)CC2
Reported Result: 0.11

====

- Tested on: A549
- Protocol Details: Cytotoxicity against human A549 cells after 48 hrs by MTT assay
- Type: functional, cell-based
- Measurement Setup: Homo sapiens, A549, 48 h; read-out: IC50
Reported values of log10 IC50 for individual entries
Reported Endpoint: log10 IC50 (log10 of the value in µg/mL)

Compound: CCOC(=O)CCCC1NCC2CCCN3CCCC1C23 (centres undefined)
Reported Result: 1.51
--
Compound: O=C1/C(=C/c2ccc(Cl)cc2)CC[C@@H]2[C@H]3CCCN4CCC[C@@H](CN12)[C@@H]34
Reported Result: 0.41
--
Compound: O=C1CCC[C@@H]2[C@H]3CCCN4CCC[C@@H](CN12)[C@@H]34
Reported Result: 0.99
--
Compound: O=C(c1ccco1)C1CC[C@@H]2[C@H]3CCCN4CCC[C@@H](CN2C1=O)[C@@H]34 (some centres undefined)
Reported Result: 0.82
--
Compound: COC(=O)CCCC1NCC2CCCN3CCCC1C23 (centres undefined)
Reported Result: 1.50
--
Compound: O=C(c1ccccc1)C1CC[C@@H]2[C@H]3CCCN4CCC[C@@H](CN2C1=O)[C@@H]34 (some centres undefined)
Reported Result: 0.56
--
Compound: O=C1/C(=C/c2cccc(F)c2)CC[C@@H]2[C@H]3CCCN4CCC[C@@H](CN12)[C@@H]34
Reported Result: 0.53
--
Compound: NC(=O)CCCC1NCC2CCCN3CCCC1C23 (centres undefined)
Reported Result: 1.27
--
Compound: O=C1/C(=C/c2ccc(F)cc2)CC[C@@H]2[C@H]3CCCN4CCC[C@@H](CN12)[C@@H]34
Reported Result: 0.48
